Please respond with reported remaining at 20 min, 20 µM for every item in the list.
assay: Metabolic stability in Sprague-Dawley rat liver microsomes assessed as compound remaining at 20 uM preincubated for 5 mins followed by NADPH addition measured after 20 mins by HPLC analysis; assay type: ADME, microsome; details: read-out: Stability
Lab note: write values as number then unit, every time.

[Q] Can you share its remaining at 20 min, 20 µM? I mean this compound: CC(C)C[C@H](NC(=O)[C@H](Cc1ccccc1)NC(=O)c1cnccn1)B(O)O [BORTEZOMIB]
[A] 44%

[Q] Can you share its remaining at 20 min, 20 µM? I mean this compound: `CC(C)C[C@H](NC(=O)[C@H](Cc1ccccc1)NC1=CC(=O)c2ccccc2C1=O)B(O)O`
[A] 60%
